Reported self-splicing fitness (ln) values are given for each entry in this list.
assay: self-splicing fitness, log relative to wild type (ln ratio); higher = more splicing; Tetrahymena group I intron in knt gene, E. coli kanamycin selection, DiMSum; sequences stand for … in CUCUCU…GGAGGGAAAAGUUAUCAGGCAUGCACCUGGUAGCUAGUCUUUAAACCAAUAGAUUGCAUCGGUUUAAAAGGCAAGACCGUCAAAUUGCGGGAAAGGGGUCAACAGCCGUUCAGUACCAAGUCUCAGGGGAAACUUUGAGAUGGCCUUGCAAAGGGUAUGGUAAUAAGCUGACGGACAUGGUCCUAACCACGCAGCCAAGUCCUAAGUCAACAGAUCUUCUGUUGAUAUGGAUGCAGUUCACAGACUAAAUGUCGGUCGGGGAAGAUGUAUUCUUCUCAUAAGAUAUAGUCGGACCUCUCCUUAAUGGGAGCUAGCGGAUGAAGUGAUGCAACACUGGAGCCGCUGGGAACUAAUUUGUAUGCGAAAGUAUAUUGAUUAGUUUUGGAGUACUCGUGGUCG; settings: 37 °C;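 further: selection with 25 µg/mL kanamycin versus none on LB agar overnight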
// no unit string in output, number only

The examples below pair each entry with its known result.
ACGUAGCAAUAUUACGGCCG : -0.11
UGUCAGCAAUAUUACGACUU : 0.303
UUUAAGCAAUAUUACGAACC : 0.0298
CUCGAGCAAUAUUACGUAGC : -2.19
GACCAGCAAUAUUACGGUCG : -1.47
UACUAGCAAUAUUACGCUUA : -0.588

For record GUCCAGCAAUAUUACGCUCA the listed self-splicing fitness (ln) is -0.112

The sequence AGACAGCAAUAUUACGCCUG showed self-splicing fitness (ln) equal to 0.171

Value of self-splicing fitness (ln) reported for the sequence UGUUAGCAAUAUUACGGGUU is -1.58

The reported self-splicing fitness (ln) of the sequence GACAAGCAAUAUUACGUCUA was -1.04

Lookup result for AAGUAGCAAUAUUACGACCA ; measured self-splicing fitness (ln): 0.396

Per the records, this sequence ( ACCGAGCAAUAUUACGGUAU ) has self-splicing fitness (ln) equal to -1.81
